Origin of values: PubChem BioAssay (NCI)

tested on: OVCAR-8 ovarian; experiment: NCI tumour cell line growth inhibition, 48 h
*1 amine or outer side, *2 acyl side, *3 side chain or, on linkers, in order; H or OH if unused. Where a SMILES comes first, the peptide text is derived from it. Bridges are numbered along the chain shown (N, C = ends). [ ]: non-standard residue; d: D form. The star is where a group is joined. X59 = COc1c(N[*:1])cccc1C(=O)O[C@H](C(=O)[C@H](C)C(=O)[*:2])C(C)C; X58 = CC(C)C[C@H](C(=O)[*:2])C(C)C(=O)C1CCCN1[*:1]; NMeY = CN[C@@H](Cc1ccc(O)cc1)C(=O)O; Boc = CC(C)(C)OC(=O)*; Lac = C[C@H](O)C(=O)O; Bn = c1ccc(C*)cc1
METRIC NAME: TGI

In the examples that follow, each entry is paired with its recorded TGI.
COMPOUND	TGI
CC(C)=CC[C@H]1C[C@@]2(CC=C(C)C)C(=O)/C(=C(/O)c3ccccc3)C(=O)[C@](CC=C(C)C)(C2=O)C1(C)C	35 µM
COc1ccc(C(=O)C/C(=N/NC(N)=S)C(=O)Nc2ccccc2)cc1	> 100 µM
NC1=NCC(c2ccccn2)C1c1ccc(F)cc1 (stereo not drawn)	> 100 µM
COc1ccc(C[C@H]2C(=O)O[C@H](C)[C@H](NC(=O)[C@@H](CC(C)C)C(C)C(=O)C3CCCN3C(=O)[C@H](C)O)C(=O)Nc3cccc(c3OC)C(=O)O[C@@H](C(C)C)C(=O)[C@H](C)C(=O)N[C@@H](CC(C)C)C(=O)N3CCC[C@H]3C(=O)N2C)cc1 (stereo partly drawn) (H-[Lac][X58]T[X59]LP[NMeY](Me); ester 3-C)	> 12.5 µM
COC(=O)C(CC(C)C)NC(=O)CNC(=O)C(Cc1ccc(OCc2ccccc2)cc1)NC(=O)C(COCc1ccccc1)NC(=O)OC(C)(C)C (stereo not drawn) (Boc-S(Bn)Y(Bn)GL-OMe; configuration not given here)	> 100 µM

Can you share its TGI? I mean this compound: CC1CN=C(NS(=O)(=O)c2cc(C(=O)Nc3ccccc3)c(Cl)cc2S)NN1 (stereo not drawn) > 100 µM

Can you share its TGI? I mean this compound: "N#CCCN(CCCN(C(=O)Nc1ccc(NC(=O)N(CCCN(CCC#N)C(N)=O)c2ccccc2)cc1)c1ccccc1)C(N)=O" > 100 µM

----------
This section lists GI50 readings for 786-0 renal.

In the examples that follow, each entry is paired with its recorded GI50.
MOLECULE	GI50
Clc1ccc(-c2nc(C(Cl)Cl)nc3cc(-c4ccccc4)nn23)cc1	> 50 µM
C=C(CN(C)Cc1ccccc1)c1ccc(C(=O)Nc2ccccc2N)cc1	5.21 µM
Cc1cc(S(=O)(=O)Nc2nc3ccccc3[nH]2)c(SCc2ccccc2)cc1Cl	62.9 µM
COc1cc2oc(-c3cccc(C(=O)Nc4ccc(C)cc4)c3)cc(=O)c2c(OC)c1OC	2.06 µM
CC(=O)[O][Hg][CH2]C1(C)COC(C)([CH2][Hg][O]C(C)=O)CO1 (stereo not given)	16.8 µM

Can you share its GI50? I mean this molecule: COc1ccc(C2CC(c3cccc(OC)c3)=NN2C(=O)c2cc(OC)c(OC)c(OC)c2)cc1 (stereo not given) 2.25 µM

Can you share its GI50? I mean this molecule: "Cc1ccc(N(/C=C/C(=O)C(F)(F)F)CC(=O)c2ccc(Cl)c(Cl)c2)cc1" 13.5 µM
